Assay: Visual assessment of thioglycolipid aggregation and hydrogel formation
Assay type: physicochemical
Settings: thioglycolipid concentration 2 wt %, room temperature
OBSERVABLE: Visual assessment of aggregation and gelation

SMILES_RECORD	READING
CCCCCCCCCCCCS[C@@H]1O[C@H](CO)[C@@H](O[C@@H]2O[C@H](CO)[C@@H](O)[C@H](O)[C@H]2O)[C@H](O)[C@H]1O	G or F
CCCCCCCCCCCCS[C@@H]1O[C@H](CO)[C@@H](O[C@@H]2O[C@H](CO)[C@H](O)[C@H](O)[C@H]2O)[C@H](O)[C@H]1O	G
CCCCCCCCCCS[C@@H]1O[C@H](CO)[C@@H](O[C@@H]2O[C@H](CO)[C@@H](O)[C@H](O)[C@H]2O)[C@H](O)[C@H]1O	G or F
CCCCCCCCCCS[C@@H]1O[C@H](CO)[C@@H](O[C@@H]2O[C@H](CO)[C@H](O)[C@H](O)[C@H]2O)[C@H](O)[C@H]1O	G
CCCCCCCCS[C@@H]1O[C@H](CO)[C@@H](O[C@@H]2O[C@H](CO)[C@@H](O)[C@H](O)[C@H]2O)[C@H](O)[C@H]1O	C

Problem: // returns reported Visual assessment of aggregation and gelation for input CCCCCCCCS[C@@H]1O[C@H](CO)[C@@H](O[C@@H]2O[C@H](CO)[C@H](O)[C@H](O)[C@H]2O)[C@H](O)[C@H]1O
Solution: G
